Target: T1, human LAG-3 expressed on cells (human, UniProt P18627 23-525)
T1 construct: whole, on cells; Treated as one protein; the host cell is named under assay; also called LAG-3-expressing CHO cells; LAG-3-transfected CHO cells
T1 sequence (looked up): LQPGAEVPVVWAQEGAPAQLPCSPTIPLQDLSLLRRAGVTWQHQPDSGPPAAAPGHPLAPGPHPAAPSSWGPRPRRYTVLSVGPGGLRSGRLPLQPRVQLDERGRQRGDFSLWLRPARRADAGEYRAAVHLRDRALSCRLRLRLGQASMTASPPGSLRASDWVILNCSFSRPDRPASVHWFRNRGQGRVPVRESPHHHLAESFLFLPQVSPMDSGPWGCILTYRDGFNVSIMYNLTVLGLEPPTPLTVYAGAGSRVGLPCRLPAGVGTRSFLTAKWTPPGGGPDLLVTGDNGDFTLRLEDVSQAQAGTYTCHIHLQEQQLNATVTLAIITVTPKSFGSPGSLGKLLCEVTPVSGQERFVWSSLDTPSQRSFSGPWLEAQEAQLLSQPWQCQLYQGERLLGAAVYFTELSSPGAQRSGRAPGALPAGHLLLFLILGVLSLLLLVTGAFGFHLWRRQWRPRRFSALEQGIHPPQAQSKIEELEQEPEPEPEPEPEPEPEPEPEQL
Experiment: rank of the clone among the humanized clones by the FACS binding data on LAG-3-expressing cells
MEASURED_QUANTITY: Ranking, Binding data
Hey, just send me the number, nothing else.

Sample records with Ranking, Binding data:
[
  {
    "BINDER": "BAP050-hum20 (antibody, human IgG4 S228P, kappa, V domains shown, humanized IgG4(S228P)/kappa, transient CHO supernatant) VH: QVQLVQSGAEVKKPGASVKVSCKASGFTLTNYGMNWVRQARGQRLEWIGWINTDTGEPTYADDFKGRFVFSLDTSVSTAYLQICSLKAEDTAVYYCARNPPYYYGTNNAEAMDYWGQGTTVTVSS VL: DIVMTQTPLSLPVTPGEPASISCSSSQDISNYLNWYQQKPGQAPRLLIYYTSTLHLGIPDRFSGSGSGTDFTLTISRLEPEDFAVYYCQQYYNLPWTFGQGTKVEIKR",
    "MEASURED_QUANTITY": "Ranking, Binding data",
    "OBSERVED_VALUE": 9
  },
  {
    "BINDER": "BAP050-hum13 (antibody, human IgG4 S228P, kappa, V domains shown, humanized IgG4(S228P)/kappa, transient CHO supernatant; also called humanized clone No. 13) VH: QVQLVQSGAEVKKPGASVKVSCKASGFTLTNYGMNWVRQAPGQGLEWMGWINTDTGEPTYADDFKGRFVFSLDTSVSTAYLQICSLKAEDTAVYYCARNPPYYYGTNNAEAMDYWGQGTTVTVSS VL: DIQMTQSPSSLSASVGDRVTITCSSSQDISNYLNWYQQKPGKAPKLLIYYTSTLHLGIPPRFSGSGYGTDFTLTINNIESEDAAYYFCQQYYNLPWTFGQGTKVEIKR",
    "MEASURED_QUANTITY": "Ranking, Binding data",
    "OBSERVED_VALUE": 9
  }
]

Prompt line: Dear colleague, I am looking for the recorded Ranking, Binding data of the following binder: BAP050-hum15 (antibody, human IgG4 S228P, kappa, V domains shown, humanized IgG4(S228P)/kappa, transient CHO supernatant) VH: EVQLVQSGAEVKKPGATVKISCKVSGFTLTNYGMNWIRQSPSRGLEWLGWINTDTGEPTYADDFKGRFVFSLDTSVSTAYLQICSLKAEDTAVYYCARNPPYYYGTNNAEAMDYWGQGTTVTVSS VL: EIVLTQSPDFQSVTPKEKVTITCSSSQDISNYLNWYQQKPGQAPRLLIYYTSTLHLGVPSRFSGSGSGTDFTLTISSLQPEDFATYYCQQYYNLPWTFGQGTKVEIKR
Response line: 20
